Below is a list of entries, each paired with its recorded pIC50 value.
Target: GAK (Homo sapiens)
Sequence (O14976 1-1311): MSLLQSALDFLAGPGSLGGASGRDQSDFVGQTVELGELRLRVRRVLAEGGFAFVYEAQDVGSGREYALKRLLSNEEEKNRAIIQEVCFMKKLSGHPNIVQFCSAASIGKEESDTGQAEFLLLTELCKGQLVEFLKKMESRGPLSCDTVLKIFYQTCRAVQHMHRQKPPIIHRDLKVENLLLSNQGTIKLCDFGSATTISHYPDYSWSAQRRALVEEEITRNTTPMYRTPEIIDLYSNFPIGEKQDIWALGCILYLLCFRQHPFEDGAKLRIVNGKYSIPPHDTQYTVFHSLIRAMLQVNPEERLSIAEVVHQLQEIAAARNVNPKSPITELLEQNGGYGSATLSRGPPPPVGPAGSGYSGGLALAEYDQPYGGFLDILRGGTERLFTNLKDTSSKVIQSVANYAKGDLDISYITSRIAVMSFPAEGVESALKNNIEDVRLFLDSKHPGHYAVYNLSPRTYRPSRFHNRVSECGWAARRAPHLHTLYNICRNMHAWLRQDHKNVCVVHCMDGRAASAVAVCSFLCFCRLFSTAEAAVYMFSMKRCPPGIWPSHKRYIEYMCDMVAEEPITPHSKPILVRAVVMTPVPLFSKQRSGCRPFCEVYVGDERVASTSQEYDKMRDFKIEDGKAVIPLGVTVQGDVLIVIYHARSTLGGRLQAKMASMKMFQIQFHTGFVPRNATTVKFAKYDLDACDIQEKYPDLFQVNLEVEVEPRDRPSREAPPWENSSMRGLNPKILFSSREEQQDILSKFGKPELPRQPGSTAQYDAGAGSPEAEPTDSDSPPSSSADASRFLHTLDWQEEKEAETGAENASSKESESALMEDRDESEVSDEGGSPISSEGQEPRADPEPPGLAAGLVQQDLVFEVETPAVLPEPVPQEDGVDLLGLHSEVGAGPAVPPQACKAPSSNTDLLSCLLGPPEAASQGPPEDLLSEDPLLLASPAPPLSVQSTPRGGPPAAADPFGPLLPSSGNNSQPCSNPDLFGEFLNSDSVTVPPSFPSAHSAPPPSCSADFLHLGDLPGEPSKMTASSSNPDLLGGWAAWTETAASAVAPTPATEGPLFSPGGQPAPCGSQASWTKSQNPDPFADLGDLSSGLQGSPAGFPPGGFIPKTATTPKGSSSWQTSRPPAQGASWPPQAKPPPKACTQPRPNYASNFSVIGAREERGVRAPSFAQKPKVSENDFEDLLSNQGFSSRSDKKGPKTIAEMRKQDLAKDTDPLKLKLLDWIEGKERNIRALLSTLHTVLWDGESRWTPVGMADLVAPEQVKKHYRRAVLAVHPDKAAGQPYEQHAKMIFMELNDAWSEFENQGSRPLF
Test: live cell NanoBRET target engagement assay
Type: cell-based
Conditions: nanoBRET; mean average, n = 2
// pIC50: -log10(molar conc.)

These solved cases illustrate the format of a correct answer.
> print(dat)
                         smiles.record       tested.system  endpoint.label  observed.measurement
1     Brc1ccc2nccc(Nc3cccc4occc34)c2c1  GAK (Homo sapiens)           pIC50                  6.74
2     Brc1ccc2nccc(Nc3cccc4ncoc34)c2c1  GAK (Homo sapiens)           pIC50                  6.47
3  Brc1ccc2nccc(Nc3cccc4[nH]ncc34)c2c1  GAK (Homo sapiens)           pIC50                  6.12

Next, consider the following compound.
Enquiry: Looking for the measured pIC50 of `Fc1ccc2c(c1Nc1ccnc3ccc(Br)cc13)OCO2` , can you help?
Return: 6.92
